Molecular target: binding partner of C5A (XPA23)
Test: Biacore
recordedEndpoint: fold affinity vs original (fold)
Unit fold implied. Number only.

Look up and state reported fold affinity vs original for C5A (XPA23) VH M57K (antibody, V domains shown) VH: EVQLLESGGGLVQPGGSLRLSCAASGFTFSKYFMFWVRQAPGKGLEWVSVISPSGGKTRYADSVKGRFTISRDNSKNTLYLQMNSLRAEDTAVYYCARVGYGGNSDYWGQGTLVTVSS VL: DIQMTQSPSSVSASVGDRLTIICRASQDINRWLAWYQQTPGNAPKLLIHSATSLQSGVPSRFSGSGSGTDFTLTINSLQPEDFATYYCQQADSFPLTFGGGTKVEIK 0.04

Read off the recorded fold affinity vs original for C5A (XPA23) VH I51H (antibody, V domains shown) VH: EVQLLESGGGLVQPGGSLRLSCAASGFTFSKYFMFWVRQAPGKGLEWVSVHSPSGGMTRYADSVKGRFTISRDNSKNTLYLQMNSLRAEDTAVYYCARVGYGGNSDYWGQGTLVTVSS VL: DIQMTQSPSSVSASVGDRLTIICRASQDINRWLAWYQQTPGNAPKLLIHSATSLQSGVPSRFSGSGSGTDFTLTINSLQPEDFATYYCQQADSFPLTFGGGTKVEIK 0.08

Look up and report measured fold affinity vs original for this entry: C5A (XPA23) VH G56F (antibody, V domains shown) VH: EVQLLESGGGLVQPGGSLRLSCAASGFTFSKYFMFWVRQAPGKGLEWVSVISPSGFMTRYADSVKGRFTISRDNSKNTLYLQMNSLRAEDTAVYYCARVGYGGNSDYWGQGTLVTVSS VL: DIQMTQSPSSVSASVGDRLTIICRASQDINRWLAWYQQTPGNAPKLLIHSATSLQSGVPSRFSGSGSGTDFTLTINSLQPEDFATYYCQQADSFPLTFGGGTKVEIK 1.41

Name the recorded fold affinity vs original of the binder listed here: C5A (XPA23) VH G55N (antibody, V domains shown) VH: EVQLLESGGGLVQPGGSLRLSCAASGFTFSKYFMFWVRQAPGKGLEWVSVISPSNGMTRYADSVKGRFTISRDNSKNTLYLQMNSLRAEDTAVYYCARVGYGGNSDYWGQGTLVTVSS VL: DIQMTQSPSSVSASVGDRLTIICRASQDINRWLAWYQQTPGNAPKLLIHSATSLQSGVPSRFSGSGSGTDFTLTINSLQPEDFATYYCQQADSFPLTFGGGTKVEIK 0.1

Check the records and state fold affinity vs original for C5A (XPA23) VH F33S (antibody, V domains shown) VH: EVQLLESGGGLVQPGGSLRLSCAASGFTFSKYSMFWVRQAPGKGLEWVSVISPSGGMTRYADSVKGRFTISRDNSKNTLYLQMNSLRAEDTAVYYCARVGYGGNSDYWGQGTLVTVSS VL: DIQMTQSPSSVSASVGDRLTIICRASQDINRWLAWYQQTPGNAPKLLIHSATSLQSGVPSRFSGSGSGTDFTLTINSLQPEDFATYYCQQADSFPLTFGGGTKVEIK 0.73

Respond only with fold affinity vs original recorded for C5A (XPA23) VH K31D (antibody, V domains shown) VH: EVQLLESGGGLVQPGGSLRLSCAASGFTFSDYFMFWVRQAPGKGLEWVSVISPSGGMTRYADSVKGRFTISRDNSKNTLYLQMNSLRAEDTAVYYCARVGYGGNSDYWGQGTLVTVSS VL: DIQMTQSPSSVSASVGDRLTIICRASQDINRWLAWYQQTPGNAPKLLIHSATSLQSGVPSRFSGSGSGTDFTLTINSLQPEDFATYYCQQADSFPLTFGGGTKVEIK 0.04

For the binder C5A (XPA23) VH F33Q (antibody, V domains shown) VH: EVQLLESGGGLVQPGGSLRLSCAASGFTFSKYQMFWVRQAPGKGLEWVSVISPSGGMTRYADSVKGRFTISRDNSKNTLYLQMNSLRAEDTAVYYCARVGYGGNSDYWGQGTLVTVSS VL: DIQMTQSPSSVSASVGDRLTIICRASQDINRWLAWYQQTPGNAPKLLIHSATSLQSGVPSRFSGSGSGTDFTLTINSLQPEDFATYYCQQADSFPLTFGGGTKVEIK , report fold affinity vs original. 0.78
